Cited source for all entries: the supplement of paper PMC10567573

B1: ZNF449 (parent)
chain: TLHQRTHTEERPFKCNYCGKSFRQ

Variants of: B1
Procedure Summary: protein stability index of a GFP-peptide fusion (GPS, HEK-293T) (PSI 1-6); higher = more stable;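 further: lentivirally expressed fusions sorted by FACS into six bins by GFP to DsRed ratio, PSI derived from sequencing read proportions per bin multiplied by bin number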
Assay Context: c terminus: a fixed tail appended
Endpoint: protein stability index
Lab note: record just the number, no unit beside it.

A selection of reference data follows.
Y17I = 2.14
Q24A = 2.55

Request: Item under review: `P12T` . Reported protein stability index?
Response: 2.26

Request: Item under review: `L2C` . Reported protein stability index?
Response: 3.15

Request: Item under review: `R5K` . Reported protein stability index?
Response: 2.77

Request: Item under review: `T8L` . Reported protein stability index?
Response: 1.64

Request: Item under review: `K14S` . Reported protein stability index?
Response: 2.34

Request: Item under review: `T8A` . Reported protein stability index?
Response: 2.29

Request: Item under review: `K20N` . Reported protein stability index?
Response: 2.37
